assay_summary: growth inhibitors of tim10-1 mutant yeast, primary screen, luminescence, uHTS (AID 463190);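 also: mutant grown at 25 °C; 0% = DMSO wells with yeast and 100% = wells holding no yeast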
assay_setup: S. cerevisiae tim10-1 ts strain growth, BacTiter-Glo, 24 h; at 20 µM; active compounds read high
The whole screen tested about 330,000 compounds, of which about 7,300 (2.2%) were called active. Only a selection was taken, and actives are over-represented in it overall.
Consider the following molecules and their measured inhibition readings.
reported_property: inhibition (%)

CCc1ccccc1NC(=O)CCOc1ccccc1: 11.8
Cc1ccc(S/C(=N\S(=O)(=O)c2ccc(Cl)cc2)c2ccccc2)cc1: 41.3
O=S(=O)(/N=C(/Nc1ccccn1)c1ccccc1)c1ccc(Cl)cc1: 20.8
COc1ccccc1C(=O)NNC(=O)c1ccc(NC(=O)c2ccccc2)cc1: -9.84
Cc1cccc(/C=N/NC(=O)CNc2cccc3ccccc23)n1: 23.6
COc1cc(/C=N/NC(=O)c2ccc(N3CCCC3=O)cc2)ccc1O: 13.5
CCOC(=O)c1cccc(NC(=O)CCOc2ccccc2)c1: 12.6

Each recorded value in this set is attributed to PubChem BioAssay AID463190.
